# assay info: Drug uptake in human Hep2 cell golgi at 10 uM after 18 hrs by fluorescence microscopic analysis
# Assay type: ADME, cell-based
# protocol conditions: hep-2, 18 h

- molecule smiles: "C=Cc1c(C)c2cc3nc(c(CC(=O)OC)c4[nH]c(cc5nc(cc1[nH]2)C(C)=C5CC)c(C)c4C(=O)N[C@@H](CC(=O)O)C(=O)O)[C@@H](CCC(=O)OC)[C@@H]3C"
  Drug uptake: "Active"
- molecule smiles: "C=Cc1c(C)c2cc3nc(c(CC(=O)OC)c4[nH]c(cc5nc(cc1[nH]2)C(C)=C5CC)c(C)c4C(=O)NCCC(=O)N[C@@H](CC(=O)O)C(=O)O)[C@@H](CCC(=O)OC)[C@@H]3C"
  Drug uptake: "Active"
- molecule smiles: "C=Cc1c(C)c2cc3nc(c(CC(=O)N[C@@H](CCCCN)C(=O)OC)c4[nH]c(cc5nc(cc1[nH]2)C(C)=C5CC)c(C)c4C(=O)OC)[C@@H](CCC(=O)OC)[C@@H]3C"
  Drug uptake: "Active"

###

# assay info: Drug uptake in human Hep2 cell golgi at 10 uM after 18 hrs by fluorescence microscopic analysis
# Format: ADME, cell-based
# protocol conditions: hep-2, 18 h

- molecule: "C=Cc1c(C)c2cc3nc(c(CC(=O)N[C@@H](CC(=O)O)C(=O)O)c4[nH]c(cc5nc(cc1[nH]2)C(C)=C5CC)c(C)c4C(=O)OC)[C@@H](CCC(=O)OC)[C@@H]3C"
  Drug uptake: "Not Active"
- molecule: "C=Cc1c(C)c2cc3nc(c(CC(=O)OC)c4[nH]c(cc5nc(cc1[nH]2)C(C)=C5CC)c(C)c4C(=O)OC)[C@@H](CCC(=O)N[C@@H](CCCCN)C(=O)OC)[C@@H]3C"
  Drug uptake: "Active"
- molecule: "C=Cc1c(C)c2cc3nc(c(CC(=O)O)c4[nH]c(cc5nc(cc1[nH]2)C(C)=C5CC)c(C)c4C(=O)O)[C@@H](CCC(=O)O)[C@@H]3C [CHLORIN E6]"
  Drug uptake: "Not Active"
- molecule: "C=Cc1c(C)c2cc3nc(c(CC(=O)OC)c4[nH]c(cc5nc(cc1[nH]2)C(C)=C5CC)c(C)c4C(=O)NCCNC(=O)[C@@H](N)CCCCN)[C@@H](CCC(=O)OC)[C@@H]3C"
  Drug uptake: "Active"

###

# Test system: HEp-2
# assay info: Ratio of IC50 for cytotoxicity against human Hep2 cells under dark condition to IC50 for human Hep2 cells in presence of 1 J/cm'2 light
# Assay type: functional
readout name: Ratio IC50
Keep it simple and answer with nothing but the number.

Solved cases (3 shown):
- molecule smiles: "C=Cc1c(C)c2cc3nc(c(CC(=O)OC)c4[nH]c(cc5nc(cc1[nH]2)C(C)=C5CC)c(C)c4C(=O)NCCC(=O)N[C@@H](CC(=O)O)C(=O)O)[C@@H](CCC(=O)OC)[C@@H]3C"
  tested target: "HEp-2"
  Ratio IC50: 468.2
- molecule smiles: "C=Cc1c(C)c2cc3nc(c(CC(=O)N[C@@H](CC(=O)O)C(=O)O)c4[nH]c(cc5nc(cc1[nH]2)C(C)=C5CC)c(C)c4C(=O)OC)[C@@H](CCC(=O)OC)[C@@H]3C"
  tested target: "HEp-2"
  Ratio IC50: 93.4
- molecule smiles: "C=Cc1c(C)c2cc3nc(c(CC(=O)OC)c4[nH]c(cc5nc(cc1[nH]2)C(C)=C5CC)c(C)c4C(=O)N[C@@H](CC(=O)O)C(=O)O)[C@@H](CCC(=O)OC)[C@@H]3C"
  tested target: "HEp-2"
  Ratio IC50: 466.6

Okay, now this molecule:
Param readout= Ratio IC50; system= HEp-2; entry= C=Cc1c(C)c2cc3nc(c(CC(=O)OC)c4[nH]c(cc5nc(cc1[nH]2)C(C)=C5CC)c(C)c4C(=O)NCCNC(=O)[C@@H](N)CCCCN)[C@@H](CCC(=O)OC)[C@@H]3C ; returns value.
200.3

###

# assay info: Drug uptake in human Hep2 cell mitochondria at 10 uM after 18 hrs by fluorescence microscopic analysis
# Format: ADME
# protocol conditions: hep-2, 18 h
readout name: Drug uptake

Consider the worked cases shown below.
- molecule: "C=Cc1c(C)c2cc3nc(c(CC(=O)N[C@@H](CCCCN)C(=O)OC)c4[nH]c(cc5nc(cc1[nH]2)C(C)=C5CC)c(C)c4C(=O)OC)[C@@H](CCC(=O)OC)[C@@H]3C"
  Drug uptake: "Not Active"
- molecule: "C=Cc1c(C)c2cc3nc(c(CC(=O)OC)c4[nH]c(cc5nc(cc1[nH]2)C(C)=C5CC)c(C)c4C(=O)NCCNC(=O)[C@@H](N)CCCCN)[C@@H](CCC(=O)OC)[C@@H]3C"
  Drug uptake: "Not Active"
- molecule: "C=Cc1c(C)c2cc3nc(c(CC(=O)N[C@@H](CC(=O)O)C(=O)O)c4[nH]c(cc5nc(cc1[nH]2)C(C)=C5CC)c(C)c4C(=O)OC)[C@@H](CCC(=O)OC)[C@@H]3C"
  Drug uptake: "Active"
- molecule: "C=Cc1c(C)c2cc3nc(c(CC(=O)O)c4[nH]c(cc5nc(cc1[nH]2)C(C)=C5CC)c(C)c4C(=O)O)[C@@H](CCC(=O)O)[C@@H]3C [CHLORIN E6]"
  Drug uptake: "Not Active"
- molecule: "C=Cc1c(C)c2cc3nc(c(CC(=O)OC)c4[nH]c(cc5nc(cc1[nH]2)C(C)=C5CC)c(C)c4C(=O)NCCC(=O)N[C@@H](CC(=O)O)C(=O)O)[C@@H](CCC(=O)OC)[C@@H]3C"
  Drug uptake: "Not Active"
- molecule: "C=Cc1c(C)c2cc3nc(c(CC(=O)OC)c4[nH]c(cc5nc(cc1[nH]2)C(C)=C5CC)c(C)c4C(=O)N[C@@H](CC(=O)O)C(=O)O)[C@@H](CCC(=O)OC)[C@@H]3C"
  Drug uptake: "Active"

Now turn to the next molecule.
GET /values?readout=Drug uptake&item= C=Cc1c(C)c2cc3nc(c(CC(=O)OC)c4[nH]c(cc5nc(cc1[nH]2)C(C)=C5CC)c(C)c4C(=O)OC)[C@@H](CCC(=O)N[C@@H](CCCCN)C(=O)OC)[C@@H]3C
Not Active

###

Catalogue of IC50 values
# Test system: HEp-2
# assay info: Cytotoxicity against human Hep2 cells under dark condition after 18 hrs by celltiter blue assay
# Type: functional, cell-based
# protocol conditions: HEp-2, 18 h
Hi! Could you send only the number? It should be in µM, unit omitted.

Consider the worked cases shown below.
- molecule smiles: "C=Cc1c(C)c2cc3nc(c(CC(=O)N[C@@H](CC(=O)O)C(=O)O)c4[nH]c(cc5nc(cc1[nH]2)C(C)=C5CC)c(C)c4C(=O)OC)[C@@H](CCC(=O)OC)[C@@H]3C"
  tested target: "HEp-2"
  IC50 (µM): 373
- molecule smiles: "C=Cc1c(C)c2cc3nc(c(CC(=O)OC)c4[nH]c(cc5nc(cc1[nH]2)C(C)=C5CC)c(C)c4C(=O)NCCNC(=O)[C@@H](N)CCCCN)[C@@H](CCC(=O)OC)[C@@H]3C"
  tested target: "HEp-2"
  IC50 (µM): 268
- molecule smiles: "C=Cc1c(C)c2cc3nc(c(CC(=O)OC)c4[nH]c(cc5nc(cc1[nH]2)C(C)=C5CC)c(C)c4C(=O)N[C@@H](CC(=O)O)C(=O)O)[C@@H](CCC(=O)OC)[C@@H]3C"
  tested target: "HEp-2"
  IC50 (µM): 285

Query (compound): C=Cc1c(C)c2cc3nc(c(CC(=O)OC)c4[nH]c(cc5nc(cc1[nH]2)C(C)=C5CC)c(C)c4C(=O)NCCC(=O)N[C@@H](CC(=O)O)C(=O)O)[C@@H](CCC(=O)OC)[C@@H]3C ; field requested: IC50
384

###

Recorded Ratio IC50, one value per entry.
# Test system: HEp-2
# assay info: Ratio of IC50 for cytotoxicity against human Hep2 cells under dark condition to IC50 for human Hep2 cells in presence of 1 J/cm'2 light
# Type: functional

Answered examples (2):
- molecule: "C=Cc1c(C)c2cc3nc(c(CC(=O)N[C@@H](CCCCN)C(=O)OC)c4[nH]c(cc5nc(cc1[nH]2)C(C)=C5CC)c(C)c4C(=O)OC)[C@@H](CCC(=O)OC)[C@@H]3C"
  data value: ">13.9"
- molecule: "C=Cc1c(C)c2cc3nc(c(CC(=O)O)c4[nH]c(cc5nc(cc1[nH]2)C(C)=C5CC)c(C)c4C(=O)O)[C@@H](CCC(=O)O)[C@@H]3C [CHLORIN E6]"
  data value: ">19.2"

Continue with the molecule presented below.
What value of Ratio IC50 has been reported for the following molecule? C=Cc1c(C)c2cc3nc(c(CC(=O)OC)c4[nH]c(cc5nc(cc1[nH]2)C(C)=C5CC)c(C)c4C(=O)OC)[C@@H](CCC(=O)N[C@@H](CCCCN)C(=O)OC)[C@@H]3C
>15.3
